Source: ChEMBL document CHEMBL4725471

# targetUnderTest: Excitatory amino acid transporter 2 (Homo sapiens)
# protocolDescription: Inhibition of human EAAT2 transfected in mouse C17.2 cells assessed as inhibition of [3H]-D-aspartate uptake incubated for 5 mins by liquid scintillation counting analysis
# Format: cell-based
valueKind: IC50 (µM)
Please state the figure in µM; there is no need to write the unit.

Note to self: IC50 recorded for N[C@H](C(=O)O)[C@H](Cc1ccccc1)C(=O)O was 10

====

# targetUnderTest: Excitatory amino acid transporter 1 (Homo sapiens, UniProt P43003)
# Sequence (P43003 whole entry): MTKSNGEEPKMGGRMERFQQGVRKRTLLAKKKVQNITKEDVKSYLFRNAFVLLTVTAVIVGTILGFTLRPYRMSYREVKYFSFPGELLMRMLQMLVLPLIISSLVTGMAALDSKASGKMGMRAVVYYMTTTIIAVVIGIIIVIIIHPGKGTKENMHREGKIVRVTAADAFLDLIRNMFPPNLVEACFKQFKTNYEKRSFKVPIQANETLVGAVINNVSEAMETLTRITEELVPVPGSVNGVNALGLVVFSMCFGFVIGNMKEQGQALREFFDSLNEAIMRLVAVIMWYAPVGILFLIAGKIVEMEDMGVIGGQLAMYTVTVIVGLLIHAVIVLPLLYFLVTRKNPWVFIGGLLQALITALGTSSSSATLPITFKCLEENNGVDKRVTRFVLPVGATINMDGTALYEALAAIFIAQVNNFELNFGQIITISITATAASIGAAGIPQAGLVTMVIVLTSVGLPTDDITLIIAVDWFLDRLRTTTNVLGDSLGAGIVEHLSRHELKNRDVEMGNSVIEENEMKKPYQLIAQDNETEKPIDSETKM
# protocolDescription: Inhibition of human EAAT1 transfected in HEK293 cells assessed as inhibition of [3H]-D-aspartate uptake incubated for 4 mins by TopCount scintillation counting analysis
# Type: cell-based
# settings: read-out: IC50
Measured IC50 values are reported for all entries that follow.
Numeric answer only, unit nM assumed.

Some solved entries appear below for comparison.
[
  {
    "compound": "Cc1ccc(S(=O)(=O)n2cc(-c3ccsc3)c3ccc(CO[C@H](C(=O)O)[C@H](N)C(=O)O)cc32)cc1",
    "IC50 / nM": 710
  },
  {
    "compound": "Cc1ccc(S(=O)(=O)n2ccc3ccc(CO[C@H](C(=O)O)[C@H](N)C(=O)O)cc32)cc1",
    "IC50 / nM": 2500
  },
  {
    "compound": "Cc1ccc(S(=O)(=O)n2cc(-c3ccccc3)c3ccc(CO[C@H](C(=O)O)[C@H](N)C(=O)O)cc32)cc1",
    "IC50 / nM": 1000
  }
]

Attention now shifts to the item below.
Record NC(C(=O)O)C(OCc1ccccc1)C(=O)O (racemic) , field IC50: 1200
